Data origin, for the record: ChEMBL document CHEMBL1136582

biological target: UniProt:P40763; assay: Inhibition of Stat3 (Signal transduction and activator of transcription 3) dimerization measured by EMSAs (Electrophoretic mobility shift assay)
pIC50: −log10 of the molar value. Square brackets hold non-standard residues; d marks the D form. Peptide text beside a SMILES is read from it. * marks the point of attachment. ξ: configuration not given here. pY = N[C@@H](Cc1ccc(OP(=O)(O)O)cc1)C(=O)O; X1 = NC(=O)[C@H](CO)NC[C@H](CC(=O)O)N*; ξA = CC(N)C(=O)O
pIC50 vs 5: at or above is 1, below is -1.

Illustrative cases are given below, each with its answer.
molecule | measurement_target | answer_label
CC(=O)N[C@@H](Cc1ccc(OP(=O)(O)O)cc1)C(=O)N[C@@H](Cc1ccccc1)C(=O)N[C@@H](CCCCN)C(=O)N[C@@H](CCC(N)=O)C(=O)N[C@@H](CC(N)=O)C(=O)N[C@@H](CS)C(N)=O (Ac-[pY]FKQNC-NH2) | UniProt:P40763 | -1
CC(=O)N[C@@H](Cc1ccc(OP(=O)(O)O)cc1)C(=O)N[C@@H](CC(C)C)C(=O)N[C@@H](CCCN=C(N)N)C(=O)N[C@@H](CS)C(=O)N[C@H](CN[C@@H](CO)C(N)=O)CC(=O)O (Ac-[pY]LRC-X1) | UniProt:P40763 | -1
CC(=O)N[C@@H](Cc1ccc(OP(=O)(O)O)cc1)C(=O)N[C@@H](CCCN=C(N)N)C(=O)N[C@@H](Cc1cnc[nH]1)C(=O)N[C@@H](CCC(N)=O)C(=O)N[C@H](C(=O)N1CCC[C@H]1C(N)=O)C(C)C (Ac-[pY]RHQVP-NH2) | UniProt:P40763 | 1

In: Tell me whether pIC50 is at least 5 here: CC(=O)N[C@@H](Cc1ccc(OP(=O)(O)O)cc1)C(=O)N[C@@H](CC(C)C)C(=O)NC(C)C(=O)N[C@@H](CCC(N)=O)C(=O)N[C@H](C(=O)N[C@H](C(N)=O)C(C)C)[C@@H](C)O (some centres not stated) (Ac-[pY]L[ξA]QTV-NH2)
Out: 1

In: Exam item: decide whether the reported pIC50 for CC(=O)N[C@@H](Cc1ccc(OP(=O)(O)O)cc1)C(=O)N[C@@H](CO)C(=O)N[C@@H](CC(=O)O)C(=O)NCC(=O)N[C@@H](CC(N)=O)C(=O)N[C@@H](Cc1ccccc1)C(N)=O (Ac-[pY]SDGNF-NH2) is at least 5.
Out: -1

In: pIC50 >= 5 for CC(=O)N[C@@H](Cc1ccc(OP(=O)(O)O)cc1)C(=O)N[C@@H](CC(C)C)C(=O)N1CCC[C@H]1C(=O)N[C@@H](CCC(N)=O)C(=O)N[C@H](C(=O)N[C@@H](C)C(=O)O)[C@@H](C)O (Ac-[pY]LPQTA-OH) ?
Out: 1

In: Kindly determine if pIC50 recorded for CC(=O)N[C@@H](Cc1ccc(OP(=O)(O)O)cc1)C(=O)N[C@@H](CO)C(=O)N[C@H](C(=O)N[C@H](C(=O)N[C@H](C(=O)N[C@@H](Cc1c[nH]cn1)C(N)=O)C(C)C)C(C)C)[C@@H](C)O (Ac-[pY]STVVH-NH2) is above or exactly 5.
Out: -1

###

Entries and their pIC50 values follow.
target: Signal transducer and activator of transcription 3 (Homo sapiens, UniProt P40763); test: Inhibition of Stat3 (Signal transduction and activator of transcription 3) dimerization measured by EMSAs (Electrophoretic mobility shift assay)
Sequence (P40763 whole entry): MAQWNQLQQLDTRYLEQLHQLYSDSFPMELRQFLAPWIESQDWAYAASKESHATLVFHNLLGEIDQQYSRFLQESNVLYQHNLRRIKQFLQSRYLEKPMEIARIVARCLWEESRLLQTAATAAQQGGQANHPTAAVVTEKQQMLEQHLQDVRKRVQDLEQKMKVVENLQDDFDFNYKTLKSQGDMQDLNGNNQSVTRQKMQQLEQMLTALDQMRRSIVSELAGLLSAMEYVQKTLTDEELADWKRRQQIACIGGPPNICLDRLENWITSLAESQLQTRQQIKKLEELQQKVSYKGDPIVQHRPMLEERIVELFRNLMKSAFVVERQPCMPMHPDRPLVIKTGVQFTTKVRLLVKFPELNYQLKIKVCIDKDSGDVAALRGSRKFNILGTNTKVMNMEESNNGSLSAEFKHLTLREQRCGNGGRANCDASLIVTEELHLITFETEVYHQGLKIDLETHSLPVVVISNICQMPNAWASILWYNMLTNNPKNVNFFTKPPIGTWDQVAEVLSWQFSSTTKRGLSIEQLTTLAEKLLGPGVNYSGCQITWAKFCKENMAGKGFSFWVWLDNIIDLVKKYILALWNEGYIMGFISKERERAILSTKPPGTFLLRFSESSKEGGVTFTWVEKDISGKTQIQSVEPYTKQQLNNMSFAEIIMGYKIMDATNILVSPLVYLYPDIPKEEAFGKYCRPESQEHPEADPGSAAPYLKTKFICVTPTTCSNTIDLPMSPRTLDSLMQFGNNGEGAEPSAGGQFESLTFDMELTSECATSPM
Square brackets hold non-standard residues; d marks the D form. Peptide text beside a SMILES is read from it. pY = N[C@@H](Cc1ccc(OP(=O)(O)O)cc1)C(=O)O
Lab note: report pIC50 as minus log10 of the concentration in molar units, number only.

In: State the recorded pIC50 for this entry: CC(=O)N[C@@H](Cc1ccc(OP(=O)(O)O)cc1)C(=O)N[C@@H](CC(C)C)C(=O)N1CCC[C@H]1C(=O)N[C@@H](CC(N)=O)C(=O)N[C@H](C(=O)N[C@H](C(N)=O)C(C)C)[C@@H](C)O (Ac-[pY]LPNTV-NH2)
Out: 5.70

In: Query: pIC50; subject: CC(=O)N[C@@H](Cc1ccc(OP(=O)(O)O)cc1)C(=O)N[C@@H](CC(C)C)C(=O)N1CCC[C@H]1C(=O)N[C@@H](CCC(N)=O)C(=O)N[C@@H](C)C(=O)N[C@H](C(N)=O)C(C)C (Ac-[pY]LPQAV-NH2)
Out: 6.10

In: Request the reported pIC50 associated with CSCC[C@H](NC(=O)[C@H](Cc1ccc(OP(=O)(O)O)cc1)NC(C)=O)C(=O)N1CCC[C@H]1C(=O)N[C@@H](CCC(N)=O)C(N)=O (Ac-[pY]MPQ-NH2)
Out: 5.82
